Molecular target: V331C LacY (lactose permease), MIANS- or DACM-labelled (Escherichia coli, UniProt P02920, E325Q/K319L/V331C)
Sequence (P02920 whole entry K319L/E325Q/V331C): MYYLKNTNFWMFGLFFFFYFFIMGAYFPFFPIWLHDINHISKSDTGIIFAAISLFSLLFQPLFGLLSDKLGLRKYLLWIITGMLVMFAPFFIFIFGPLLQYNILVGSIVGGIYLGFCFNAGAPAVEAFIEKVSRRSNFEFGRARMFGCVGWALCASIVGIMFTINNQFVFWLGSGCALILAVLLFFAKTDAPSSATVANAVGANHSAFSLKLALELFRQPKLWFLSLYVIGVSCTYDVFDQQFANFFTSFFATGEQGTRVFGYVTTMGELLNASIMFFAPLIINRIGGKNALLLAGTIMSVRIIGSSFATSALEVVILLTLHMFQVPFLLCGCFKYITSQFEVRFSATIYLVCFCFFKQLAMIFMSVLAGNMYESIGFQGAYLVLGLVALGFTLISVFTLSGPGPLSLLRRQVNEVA
Test: stopped-flow Trp to NPG FRET, kobs vs NPG
Quantity: Kd (µM)
Field format: number, assumed µM, no unit text.

Which Kd reading was recorded for the compound O=[N+]([O-])c1ccc(O[C@H]2O[C@H](CO)[C@H](O)[C@H](O)[C@H]2O)cc1 [NPG, 4-nitrophenyl α-D-galactopyranoside] ? 8.3
